System: Plasmodium berghei
Experiment: Luciferase/luciferin-expressing antifolate-resistant parasites were used to infect a culture of HepG2 cells that were pre-incubated with compounds. Infected hepatocytes emit light due to the luciferase reaction. Assay results are presented as the percent inhibition of light emission compared to control. […]
Assay type: functional
Details: sporozoite, read-out: LUCIFERASE INFECTION ASSAY - IC90
reported.property: IC90

// worked examples, IC90 included
Cc1cc(N2CCN(C(=O)c3cc(-c4ccccc4)nc4c3cnn4C(C)C)CC2)nc(C(C)C)n1 ... > 10 µM
Cc1c(C)n(CCCO)c2ncn3nc(-c4ccccc4O)nc3c12 ... 0.862 µM

Enter IC90 (test system Plasmodium berghei) for `O=C(NCCc1cccs1)N1CCc2nc(NCc3cccc(Oc4ccccc4)c3)ncc2C1`
> 6.8 µM
